molecular target: T1, human TLR3 solely at the cell surface (TLR3/CD32-expressing 293T cells) (Homo sapiens, UniProt O15455); assay: Titration on HEK293T cells expressing TLR3 ECD-CD32 solely at the cell surface (FACS); assay type: binding; details: neutral pH
T1 construct: transiently transfected with the wild-type or mutant TLR3 ECD-CD32 construct; expressed in transfected cells; host or cells: HEK293T, transient, pcDNA3.1
REPORTED METRIC: binding to surface-expressed human TLR3

31F6: rat anti-human TLR3 monoclonal antibody; VH SEQ ID NO: 14, VL SEQ ID NO: 15 (antibody, listed as Rattus norvegicus, V domains shown) VH: EVQLQQSGAELGKPGTSVKLSCKVSGYNIRYTYMHWVNQRPGKGLEWIGRIDPANGDSIYGEDFKTKATLTADTSSNTAYMQLSQLKSDDTAIYFCAMGEFDYFDYWGQGVMVTVSSASTK VL: DIQMTQSPPSLSASLGETVSIECLASEGISNDLAWYQQRSGKSPQLLIYAASRLQDGVPSRFSGSGSGTRYSLKISGMQPEDEADYFCQQNYKYPLTFGSGTKLEIK ... strong binding
32C4: rat anti-human TLR3 monoclonal antibody; VH SEQ ID NO: 25, VL SEQ ID NO: 26 (antibody, listed as Rattus norvegicus, V domains shown) VH: EVQLQQYGAELGKPGTSVKLSCKVSGYNIWSTYIYWVNQRPGKGLEWIGRIDPANGNTIYAEKFKTKATLTADTSSNTAYMQLSQLKSDDTAIYFCAMGDHGGYVMDAWGQGASVTVSS VL: DIQMTQSPGSLSASLGETVSIECLASEDIYSYLAWYQQKPGKSPQLLIYAANRLEDGVPSRFSGSGSGTQYSLKISGMQPEDEGDYFCLQGSEFPYTFGTGTKLELK ... strong binding
7G11: rat anti-human TLR3 monoclonal antibody; VH SEQ ID NO: 47, VL SEQ ID NO: 48 (antibody, listed as Rattus norvegicus, V domains shown) VH: EVQLQQYGAELGKPGTSVKLSCKVSGYNITYTYMHWVNQRPGKGLEWIGRIDPANGNTIYGEKFKNKATLTADTSSNTAYMQLSQLKSDDTAIYFCAMGEFDYFDHWGQGVMVTVSS VL: DIQMTQSPASLSASLGETVSIECLASEDISNDLAWYQQKSGKSPQVLIYAASRLEDGVPSRFSGSGSGTRYSLKISGMQPEDEADYFCQQSYKYPVTFGSGTKLEIK ... strong binding

Source: patent US9944712B2
